# Tested on: HCT-116 colon
# PROTOCOL_SUMMARY: NCI-60 one-dose screen, 48 h
# ASSAY_CONTEXT: 10 µM unless noted
This is part of a sample that, as a whole, favours compounds with a hit. Of some 83,000 tested, about 20% had one in any assay. Activity calls are given as the source filed them. Rule for the calls: active = growth percent below 10; inactive = the rest.
Outcomes: YES = active, NO = inactive

[
  {
    "COMPOUND": "COc1ccc(C2=NN(C(C)=O)C(c3cccc(Nc4ccnc5cc(Cl)ccc45)c3)C2)cc1 (stereo unspecified)",
    "CLASS": "NO"
  },
  {
    "COMPOUND": "CN1CCN(CCCCCN=c2cc3c(=O)n(CCCCCN4CCN(C)CC4)c(=O)c4c(NCCCCCN5CCN(C)CC5)cc5c(O)n(CCCCCN6CCN(C)CC6)c(=O)c2c5c4-3)CC1",
    "CLASS": "YES"
  },
  {
    "COMPOUND": "C[C@]12CCC(=O)C=C1CC[C@H]1[C@@H]3C[C@@H](O)[C@](O)(C(=O)CO)[C@@]3(C)C[C@H](O)[C@@]12F",
    "CLASS": "NO"
  },
  {
    "COMPOUND": "O=C(Nc1nc(-c2ccc(Cl)cc2)cs1)c1cc(-c2ccc(Br)cc2)nc2ccc(Cl)cc12",
    "CLASS": "YES"
  },
  {
    "COMPOUND": "CCSCC1CC(O)(c2ccccc2)C(c2ccccc2)C(c2ccc(Cl)cc2)O1 (stereo unspecified)",
    "CLASS": "YES"
  },
  {
    "COMPOUND": "O=C(O)c1ccc(CNS(=O)(=O)c2ccc3ccccc3c2)cc1",
    "CLASS": "NO"
  }
]

----------
# Tested on: 786-0 renal
# PROTOCOL_SUMMARY: NCI-60 one-dose screen, 48 h
# ASSAY_CONTEXT: 10 µM unless noted
Compounds without any hit were thinned out: in the full panel of roughly 83,000, 20% have a hit. Active and inactive are the calls of the source. Rule for the calls: active = growth percent below 10; inactive = the rest.
Outcomes: True for active, False for inactive

[
  {
    "MOL_SMILES": "Cc1nn2c(/C=C3/C(=O)Nc4cc(Cl)ccc43)c(-c3ccccc3)nc2s1",
    "CLASS": "True"
  },
  {
    "MOL_SMILES": "c1cc[n+](Cc2ccnc3ccccc23)cc1",
    "CLASS": "False"
  },
  {
    "MOL_SMILES": "CN(C)c1ccc(-c2nc3ncc(Br)cc3o2)cc1",
    "CLASS": "False"
  }
]

----------
# Tested on: RXF 393 renal
# PROTOCOL_SUMMARY: NCI-60 one-dose screen, 48 h
# ASSAY_CONTEXT: 10 µM unless noted
About 83,000 compounds went through this panel and 20% of them were active in at least one assay; those are over-represented in the sample as a whole. Activity calls are given as the source filed them. Rule for the calls: active = growth percent below 10; inactive = the rest.
Outcomes: active, inactive

[
  {
    "COMPOUND": "CCCCc1n(Cc2ccc3ccccc3c2)cc[n+]1Cc1ccc2ccccc2c1",
    "CLASS": "active"
  },
  {
    "COMPOUND": "CC(=O)Nc1cc2c3c(cccc3c1)-c1ccccc1-2",
    "CLASS": "inactive"
  },
  {
    "COMPOUND": "CC(C)=CCCC(C)c1ccc(C)c2c1OCN(CC1CCNCC1)C2 (stereo not given)",
    "CLASS": "inactive"
  },
  {
    "COMPOUND": "CN[C@@H]1C(OC2[C@H](O[C@H]3[C@H](O)[C@@H](O)[C@H](N=C(N)N)[C@@H](O)[C@@H]3N=C(N)N)OC(C)[C@]2(O)CO)OC(CO)C(O)C1O (stereo not given in full)",
    "CLASS": "inactive"
  },
  {
    "COMPOUND": "Cc1ccc(OCC(=O)Nc2ccc(Oc3ccccc3)cc2)c([N+](=O)[O-])n1",
    "CLASS": "inactive"
  },
  {
    "COMPOUND": "CC(=O)OCC(=O)[C@@]1(O)CC[C@H]2[C@@H]3CCC4=CC(=O)CC[C@]4(C)[C@@]3(F)[C@@H](O)C[C@@]21C",
    "CLASS": "inactive"
  },
  {
    "COMPOUND": "CO[C@H]1/C=C/O[C@@]2(C)Oc3c(C)c(O)c4c(O)c(c(/C=N/N5C(C)CN(Cc6ccc(C#N)cc6)CC5C)c(O)c4c3C2=O)NC(=O)/C(C)=C\\C=C\\[C@H](C)[C@H](O)[C@@H](C)[C@@H](O)[C@@H](C)[C@H](OC(C)=O)[C@@H]1C (stereo not given in full)",
    "CLASS": "inactive"
  },
  {
    "COMPOUND": "COc1cc(/C=C/C(=O)CC(=O)/C=C/c2ccc(OC(=O)CCNC34CC5CC(CC(C5)C3)C4)c(OC)c2)ccc1OC(=O)CCNC12CC3CC(CC(C3)C1)C2",
    "CLASS": "active"
  },
  {
    "COMPOUND": "CCOC(=O)CCC(=O)O[C@H]1[C@H](O[C@@H]2[C@@H](C)[C@H](O[C@H]3C[C@@](C)(OC)[C@@H](O)[C@H](C)O3)[C@@H](C)C(=O)O[C@H](CC)[C@@](C)(O)[C@H](O)[C@@H](C)C(=O)[C@H](C)C[C@@]2(C)O)O[C@H](C)C[C@@H]1N(C)C",
    "CLASS": "inactive"
  },
  {
    "COMPOUND": "Cc1ccc2nc(SCC(=O)Nc3ccc(-c4nc5ccccc5s4)c(Cl)c3)[nH]c2c1",
    "CLASS": "inactive"
  },
  {
    "COMPOUND": "Cc1ccc(C(NC(=O)c2ccccc2)c2ccc3cccnc3c2O)cc1 (stereo not given)",
    "CLASS": "inactive"
  },
  {
    "COMPOUND": "NC(=O)c1cc(Br)cc(Br)c1NS(=O)(=O)c1ccccc1",
    "CLASS": "inactive"
  },
  {
    "COMPOUND": "C[C@@H]1[C@H]2[C@H](C=C3[C@@H]4CC[C@H]5Cc6nc7c(nc6C[C@]5(C)[C@H]4C[C@@H](O)[C@@]32C)C[C@@H]2CC[C@H]3C4=C[C@@H]5O[C@@]6(CC[C@](C)(CO)O6)[C@@H](C)[C@@]5(O)[C@@]4(C)[C@H](O)C[C@@H]3[C@@]2(C)C7)O[C@]12CCC(C)(C)O2",
    "CLASS": "active"
  },
  {
    "COMPOUND": "CCOC(=O)C(C(=O)OCC)C1CCCCC1",
    "CLASS": "inactive"
  },
  {
    "COMPOUND": "O=C(Oc1ccccc1)C(Br)C(Br)c1ccccc1 (stereo not given)",
    "CLASS": "inactive"
  },
  {
    "COMPOUND": "O=C(CNC(=O)c1cccc2ccccc12)Nc1ccccc1Oc1cccc(O)c1",
    "CLASS": "active"
  },
  {
    "COMPOUND": "Cc1sc2nc(NCc3ccccc3)[nH]c(=O)c2c1C",
    "CLASS": "inactive"
  },
  {
    "COMPOUND": "O=C(c1ccc(Cl)cc1)c1ccc(Cl)cc1",
    "CLASS": "inactive"
  },
  {
    "COMPOUND": "CC(=O)c1ccc(NS(=O)(=O)c2ccc([N+](=O)[O-])cc2)cc1",
    "CLASS": "inactive"
  },
  {
    "COMPOUND": "O=C(/C=C/c1cccc(Nc2ccnc3cc(Cl)ccc23)c1)c1ccc(Cl)cc1",
    "CLASS": "inactive"
  },
  {
    "COMPOUND": "COc1cccc(/C=N\\NC(=O)c2ccncc2)c1O",
    "CLASS": "inactive"
  },
  {
    "COMPOUND": "CNc1nc(NC2CCCC2)nc(Sc2ccc(OC)cc2)n1",
    "CLASS": "inactive"
  },
  {
    "COMPOUND": "COc1ccc2c(c1)CC[C@@H]1[C@@H]2CC[C@]2(C)[C@@H](O)C(=O)C[C@@H]12",
    "CLASS": "inactive"
  },
  {
    "COMPOUND": "COc1ccc(/C=C2/SC(=Nc3c(C)nn(-c4ccccc4)c3N)NC2=O)cc1",
    "CLASS": "inactive"
  },
  {
    "COMPOUND": "N#Cc1c(-c2ccccc2)cc(-c2ccccc2)n(CCCCC(=O)O)c1=O",
    "CLASS": "inactive"
  }
]
